# STUDY_TARGET: Phosphatidylinositol 4,5-bisphosphate 3-kinase catalytic subunit delta isoform (Homo sapiens)
# METHOD_SUMMARY: Inhibition of PI3K p110delta (unknown origin) at 100 nM using lipid substrate after 40 mins by kinase-Glo assay relative to control
Binary call on inhibition: Met from 90% upward, Not met beneath that.

# example entries with known answers
* COc1ccc(-c2ccc3ncnc(N[C@H]4CCN(C(=O)Cc5ccccc5)C4)c3c2)cn1 | Not met
* COc1ccc(-c2ccc3ncnc(N[C@H]4CCN(C(=O)c5ccco5)C4)c3c2)cn1 | Met

Is reported inhibition greater than or equal to 90% here: COc1ccc(-c2ccc3ncnc(N[C@H]4CCN(C(=O)C5CCOCC5)C4)c3c2)cn1
Met

Another: COc1ccc(-c2ccc3ncnc(N[C@H]4CCN(C(=O)CC(C)(C)C)C4)c3c2)cn1
Met

Would you kindly repeat that for COc1ncc(-c2ccc3ncnc(N[C@H]4CCN(C(=O)C5CCOCC5)C4)c3c2)cc1C#N ?
Met

The reported numbers originate from ChEMBL document CHEMBL4219144.
